The measured values listed here are drawn from patent US20250250357A1.

TESTED SYSTEM: T1, human MSLN-R3 protein (human, UniProt Q13421 487-598)
T1 construct: also called hMSLN-R3
T1 sequence (Q13421 495-606, form in doubt): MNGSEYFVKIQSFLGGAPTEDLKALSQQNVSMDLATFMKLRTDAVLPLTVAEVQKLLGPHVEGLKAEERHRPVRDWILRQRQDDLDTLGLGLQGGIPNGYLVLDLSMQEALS
MEASUREMENT NOTES: ELISA on coated antigen, antibody 10 nM
PROPERTY: OD450 (OD450)
Answers are plain numbers, in OD450.

Past entries and their recorded results:
Tab111 (scFv, not shown: small tags and cut ends, also called YP218 VL-(G4S)3-VH-his antibody; positive control) scFv: DVVMTQTPASVSEPVGGTVTIKCQASQRISSYLSWYQQKPGQRPKLLIFGASTLASGVPSRFKGSGSGTEYTLTISDLECADAATYYCQSYAYFDSNNWHAFGGGTEVVVGGGGSGGGGSGGGGSQQQLEESGGGLVKPEGSLTLTCKASGFDLGFYFYACWVRQAPGKGLEWIACIYTAGSGSTYYASWAKGRFTISKASSTTVTLQMTSLAAADTATYFCARSTANTRSTYYLNLWGPGTLVTVSS ... 1.88
F7.33.24-H10 (scFv, not shown: small tags and cut ends, also called S009-F7.33.24 humanized antibody VH2a + VL1) scFv: EVQLVQSGAEVKKPGASVKVSCKASGYTFTSYWMHWVRQAPGQGLEWMGNVNPSNAGSNYNEKFKNRVTITVDKSASTAYMELSSLRSEDTAVYYCAPHYIGSRPGFAYWGQGTLVTVSSGGGGSGGGGSGGGGSDIVMTQSPDSLAVSLGERATINCKASQNVGTNIAWYQQKPGQSPKALIYSASYRYSGVPDRFSGSGSGTDFTLTISSLQAEDVAVYYCQQYNSYPLTFGGGTKVEIK ... 1.85
F7.33.24-H1 (scFv, not shown: small tags and cut ends, also called S009-F7.33.24 humanized antibody VH1 + VL1) scFv: EVQLVQSGAEVKKPGASVKVSCKASGYTFTSYWMHWVRQAPGQRLEWMGNVNPSNGGSNYNEKFKNRVTITVDKSASTAYMELSSLRSEDTAVYYCAPHYIGSRPGFAYWGQGTLVTVSSGGGGSGGGGSGGGGSDIVMTQSPDSLAVSLGERATINCKASQNVGTNIAWYQQKPGQSPKALIYSASYRYSGVPDRFSGSGSGTDFTLTISSLQAEDVAVYYCQQYNSYPLTFGGGTKVEIK ... 1.61

Moving on to another binder below.
Item under review: F7.33.24-H2 (scFv, not shown: small tags and cut ends, also called S009-F7.33.24 humanized antibody VH1 + VL2) scFv: EVQLVQSGAEVKKPGASVKVSCKASGYTFTSYWMHWVRQAPGQRLEWMGNVNPSNGGSNYNEKFKNRVTITVDKSASTAYMELSSLRSEDTAVYYCAPHYIGSRPGFAYWGQGTLVTVSSGGGGSGGGGSGGGGSDIVMTQTPLSLSVTPGQPASISCKASQNVGTNIAWYLQKPGQSPQALIYSASYRYSGVPDRFSGSGSGTDFTLKISRVEAEDVGVYYCQQYNSYPLTFGGGTKVEIK . Reported OD450?
1.62
